# Tested On: Gal(b1-4)GlcNAc(b1-3)Gal(b1-4)GlcNAc(b1-3)Gal(b1-4)GlcNAc
# Assay Text: glycan array binding signal (z-score within array); higher = stronger binding
# Condition Info: glycan notation: IUPAC condensed, linker removed
Only a selection was taken, and the strongest signals are over-represented in it overall.
Outcome label depends on glycan array binding signal (z-score) relative to 0.4: at/above gives MET, below gives NOT MET.

Some solved cases for reference:
INSERT INTO results (binder, qualitative_label) VALUES
  ('Clec18A (Homo sapiens) (protein) PFHTCDLRIDGDCFMVSSEADTYYRARMKCQRKGGVLAQIKRQKVQDILAFYLGRLETTNEVIDSDFETRNFWIGLTYKTAKDSFRWATGEHQAFTSFAFGQPDNHGFGNCVELQASAAFNWNDQRCKTRNRYICQ', 'MET'),
  ('MRCL (Homo sapiens), NP_872425.1 (protein) ATKVHFPFHTCDLRIDGDCFMVSSEADTYYRARMKCQRKGGVLAQIKSQKVQDILAFYLGRLETTNEVTDSDFETRNFWIGLTYKTAKDSFRWATGEHQAFTSFAFGQPDNHGLVWLSAAMGFGNCVELQASAAFNWNNQRCKTRNRYICQFAQEHISRWGPGS', 'MET'),
  ('TREM-2 (Mus musculus), Q99NH8 (protein) MGPLHQFLLLLITALSQALNTTVLQGMAGQSLRVSCTYDALKHWGRRKAWCRQLGEEGPCQRVVSTHGVWLLAFLKKRNGSTVIADDTLAGTVTITLKNLQAGDAGLYQCQSLRGREAEVLQKVLVEVLEDPLDDQDAGDLWVPEESSSFEGAQVEHSTSRNQETSFPPTSILLLLACVLLSKFLAASILWAVARGRQKPGTPVVRGLDCGQDAGHQLQILTGPGGT', 'NOT MET');

For the next question, use this binder.
Reported glycan array binding signal (z-score) reaches at least 0.4 for Gal 3 (Canis lupus) (protein) MADSFSLNDALSGSGNPNPQGWPGPWGNQPAGAGGYPGASYPGAYPGQAPPGGYPGQAPPGGYPGQAPPGGYPGQAPPGGYPGQAPPGGYPGQAPPGTYPGPTAPAYPGPTAPGTQPGQPSGPGAYPPPGQPSAPGAYPAAGPFGIPAGPLTVPYDLPLPGGVKPRMLITILGTVRPSANRLALDFKRGNDVAFHFNPRFNEDNKRVIVCNTKLDNIWGKEERQAAFPFESGKPFKIQVLVESDHFKVAVNDAHLLQYNHRMKNLPEISKLGISGDIDLTSASYAMI ?
MET
